target: APH(2″)-IVa (Enterococcus casseliflavus); assay: Isothermal titration calorimetry of aminoglycoside binding
Param label: returns y when Kd < 6 µM, returns n otherwise, including exact equality.

These solved cases illustrate the format of a correct answer.
NC[C@H]1O[C@H](O[C@H]2[C@H](O)[C@@H](O[C@H]3O[C@H](CO)[C@@H](O)[C@H](N)[C@H]3O)[C@H](N)C[C@@H]2N)[C@H](N)[C@@H](O)[C@@H]1O: y
CNC(C)C1CCC(N)C(OC2C(N)CC(N)C(OC3OCC(C)(O)C(NC)C3O)C2O)O1 (stereo not drawn): n
NC[C@H]1O[C@H](O[C@H]2[C@H](O)[C@@H](O[C@H]3O[C@H](CO)[C@@H](O)[C@H](N)[C@H]3O)[C@H](N)C[C@@H]2N)[C@H](N)C[C@@H]1O: y
CN[C@@H]1[C@@H](O)[C@@H](O[C@@H]2[C@@H](O)[C@H](O[C@H]3OC(CN)=CC[C@H]3N)[C@@H](N)C[C@H]2N)OC[C@]1(C)O: y
NCC[C@H](O)C(=O)N[C@@H]1C[C@H](N)[C@@H](O[C@H]2O[C@H](CN)[C@@H](O)[C@H](O)[C@H]2O)[C@H](O)[C@H]1O[C@H]1O[C@H](CO)[C@@H](O)[C@H](N)[C@H]1O: n

Here is the next item to consider.
QUERY: Here's an entry: NC[C@@H]1O[C@H](O[C@H]2[C@@H](O)[C@H](O[C@@H]3[C@@H](O)[C@H](N)C[C@H](N)[C@H]3O[C@H]3O[C@H](CO)[C@@H](O)[C@H](O)[C@H]3N)O[C@@H]2CO)[C@H](N)[C@@H](O)[C@@H]1O . Is its Kd below 6 µM?
RESULT: n

###

Target: APH(2″)-IVa (Enterococcus casseliflavus, UniProt O68183)
Sequence (O68183 entry or part of it): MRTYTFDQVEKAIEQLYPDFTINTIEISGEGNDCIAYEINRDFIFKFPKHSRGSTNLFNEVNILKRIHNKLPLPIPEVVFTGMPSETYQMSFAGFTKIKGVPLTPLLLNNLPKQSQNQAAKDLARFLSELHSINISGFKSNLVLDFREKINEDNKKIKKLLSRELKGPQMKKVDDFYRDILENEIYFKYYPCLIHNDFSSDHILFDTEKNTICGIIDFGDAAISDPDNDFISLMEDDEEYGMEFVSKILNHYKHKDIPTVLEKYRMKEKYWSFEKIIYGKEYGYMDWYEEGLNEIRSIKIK
Settings: ratio of ITC Kd to steady state Km
Experimental: Unless otherwise stated, kinetic experiments were carried out in a buffer that contained 50 mM Tris, 40 mM KCl, 1 mM free MgCl2 adjusted to pH 7.5 with HCl at 25 °C. In the case of experiments with CaATP, the buffer was MgCl2-free. Steady state kinetics were carried out in thermostatically controlled beakers as already described. […] A 100 μL volume of the quenched reaction mixture was diluted in 900 μL of buffer containing the mobile phase supplemented with 5 N KOH to readjust the pH to 5.5. […]
Kd/Km strictly less than 0.5 = class 1. Otherwise class 0.

CNC(C)C1CCC(N)C(OC2C(N)CC(N)C(OC3OCC(C)(O)C(NC)C3O)C2O)O1 (centres unmarked): class 0

QUERY: Given NC[C@H]1O[C@H](O[C@H]2[C@H](O)[C@@H](O[C@H]3O[C@H](CO)[C@@H](O)[C@H](N)[C@H]3O)[C@H](N)C[C@@H]2N)[C@H](N)C[C@@H]1O , is recorded Kd/Km strictly lower than 0.5?
RESULT: class 1

QUERY: Please check: Kd/Km for CN[C@@H]1[C@@H](O)[C@@H](O[C@@H]2[C@@H](O)[C@H](O[C@H]3OC(CN)=CC[C@H]3N)[C@@H](N)C[C@H]2N)OC[C@]1(C)O , strictly under 0.5 or not?
RESULT: class 0

QUERY: Please let me know if CN[C@@H]1[C@@H](O)[C@@H](O[C@@H]2[C@@H](O)[C@H](O[C@H]3O[C@H]([C@@H](C)O)[C@@H](O)[C@H](O)[C@H]3N)[C@@H](N)C[C@H]2N)OC[C@]1(C)O shows Kd/Km below 0.5.
RESULT: class 0
